# abundance fitness annotations
B1: Far upstream element-binding protein 1, residues 98 to 169; numbered along this chain, Q96AE4 (parent)
chain: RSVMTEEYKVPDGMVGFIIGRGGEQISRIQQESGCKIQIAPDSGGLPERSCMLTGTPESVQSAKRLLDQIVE

Variants of: B1
measurement_protocol: abundance fitness (aPCA) (normalised: wild type 0, dead -1); higher = more abundant; growth selection in yeast, the domain comes from the species named
protocol_conditions: Homo sapiens
result_type: abundance fitness

# residue_sequence, result_type, recorded_result
records = [
    ("RSVMTEEYKVPDGMVGFIFGRGGEQISRIQQESGCKIQIAPDSGGLPERSCMLTGTPESVQSAKRLLDQIVE [I19F]", "abundance fitness", -0.048),
    ("RSVMTEEYKVPDGMVGFIIGRGGEQISRIQQESGCKIQIAPDSGGIPERSCMLTGTPESVQSAKRLLDQIVE [L46I]", "abundance fitness", -0.092),
    ("RSVMTEEYKVPDGMVGFIIGRGGEWISRIQQESGCKIQIAPDSGGLPERSCMLTGTPESVQSAKRLLDQIVE [Q25W]", "abundance fitness", -0.145),
    ("RSVMTEEYKVPDGMVGFIIGRGGVQISRIQQESGCKIQIAPDSGGLPERSCMLTGTPESVQSAKRLLDQIVE [E24V]", "abundance fitness", -0.072),
    ("RSVMTEEYKVPDGMVGFIIGRGGEQINRIQQESGCKIQIAPDSGGLPERSCMLTGTPESVQSAKRLLDQIVE [S27N]", "abundance fitness", -0.042),
    ("RSVMTEEYKVPDGMVGFIIGRGGEQISRIQQESGCKICIAPDSGGLPERSCMLTGTPESVQSAKRLLDQIVE [Q38C]", "abundance fitness", -0.005),
    ("RSVMTEEYKVPDGMVGPIIGRGGEQISRIQQESGCKIQIAPDSGGLPERSCMLTGTPESVQSAKRLLDQIVE [F17P]", "abundance fitness", 0.01),
    ("RSVMTEEYKVPDGMVGFIIGRGGEQISRIQQESGHKIQIAPDSGGLPERSCMLTGTPESVQSAKRLLDQIVE [C35H]", "abundance fitness", -0.835),
    ("RSVMTEEYKVPDGMVGFIIGRGGEQISRIQQESGCKIQIAPDSGGLPERSMMLTGTPESVQSAKRLLDQIVE [C51M]", "abundance fitness", 0.017),
    ("RSVMTEEYKVPDGMVGFIIGRGGEQISRIQQESGCKIQIAPKSGGLPERSCMLTGTPESVQSAKRLLDQIVE [D42K]", "abundance fitness", -0.026),
    ("RSVMTEEYKVPDGMVGFIIGRGGEQISRIQQESGCKIQIAPDSGGLPERSCMLTGTPESVQSAKRLMDQIVE [L67M]", "abundance fitness", -0.107),
]

Ref: the Human Domainome abundance scans (Beltran et al. 2025)
